# Experimental system: Enoyl-[acyl-carrier-protein] reductase [NADPH] FabI (Staphylococcus aureus) (UniProt Q6GI75)
# Sequence (whole entry): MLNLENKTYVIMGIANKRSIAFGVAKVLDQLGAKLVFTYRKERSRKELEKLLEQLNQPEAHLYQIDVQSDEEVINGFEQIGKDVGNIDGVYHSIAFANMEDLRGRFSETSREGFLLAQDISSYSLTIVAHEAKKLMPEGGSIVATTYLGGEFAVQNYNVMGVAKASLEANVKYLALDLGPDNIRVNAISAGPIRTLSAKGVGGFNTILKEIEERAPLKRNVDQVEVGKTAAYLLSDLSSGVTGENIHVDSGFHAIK
# Test summary: Inhibition of Staphylococcus aureus FabI-mediated reduction of enoyl-ACP preincubated at 1 uM for 30 mins measured after 2 hrs by spectrophotometry

| Compound | Measurement units | inhibition |
| --- | --- | --- |
| Cc1c(CN(C)C(=O)/C=C/c2cnc3c(c2)CCC(=O)N3)oc2ccccc12 [AFN-1252] | % | 100 |
| O=C1CCc2cc(/C=C/C(=O)N3CC(COc4cccc(F)c4)C3)cnc2N1 | % | 89 |
| Cc1c(C2CN(C(=O)/C=C/c3cnc4c(c3)NCCC(=O)N4)C2)oc2ccccc12 | % | 92 |
| Cc1ccc(OCC2CN(C(=O)/C=C/c3cnc4c(c3)CCC(=O)N4)C2)cc1 | % | 67 |
| Cc1cc(C2CN(C(=O)/C=C/c3cnc4c(c3)CCC(=O)N4)C2)nc2ccccc12 | % | 84 |
| O=C1CCc2cc(/C=C/C(=O)N3CC(COc4ccc(F)cc4)C3)cnc2N1 | % | 92 |
| Cc1c(C2CN(C(=O)/C=C/c3cnc4c(c3)CN(CCN3CCOCC3)C(=O)N4)C2)oc2ccccc12 | % | 105 |
| Cc1c(C2CN(C(=O)/C=C/c3cnc4c(c3)CCC(=O)N4)C2)sc2ccccc12 | % | 89 |
| O=C1CCc2cc(/C=C/C(=O)N3CC(COc4ccccc4F)C3)cnc2N1 | % | 99 |
| Cc1c(C2CN(C(=O)/C=C/c3ccc(NC(=O)Cn4ccnn4)nc3)C2)oc2ccccc12 | % | 66 |
| Cc1ccccc1OCC1CN(C(=O)/C=C/c2cnc3c(c2)CCC(=O)N3)C1 | % | 80 |
| Cc1c(C2CN(C(=O)/C=C/c3cnc4c(c3)CNCC(=O)N4)C2)oc2ccccc12 | % | 83 |
| O=C1CCc2cc(/C=C/C(=O)N3CC(Oc4ccccc4)C3)cnc2N1 | % | 35 |
| O=C1CCc2cc(/C=C/C(=O)N3CC(c4nc5ccccc5s4)C3)cnc2N1 | % | 83 |
| O=C1CCc2cc(/C=C/C(=O)N3CC(c4ccccc4)C3)cnc2N1 | % | 80 |
| O=C1CCc2cc(/C=C/C(=O)N3CC(c4ccccn4)C3)cnc2N1 | % | 87 |
| CC(=O)Nc1ccc(/C=C/C(=O)N2CC(c3oc4ccccc4c3C)C2)cn1 | % | 97 |
| O=C1CCc2cc(/C=C/C(=O)N3CCC3)cnc2N1 | % | 15 |
| Cc1c(C2CN(C(=O)/C=C/c3cnc4c(c3)CCC(=O)N4)C2)oc2ccc(Cl)cc12 | % | 82 |
| Cc1cccc(OCC2CN(C(=O)/C=C/c3cnc4c(c3)CCC(=O)N4)C2)c1 | % | 47 |
